- target_system: T1, soluble recombinant human DEC-205 fusion protein (DEC-205 extracellular domain comprising all ten … (human))
- T1 chain: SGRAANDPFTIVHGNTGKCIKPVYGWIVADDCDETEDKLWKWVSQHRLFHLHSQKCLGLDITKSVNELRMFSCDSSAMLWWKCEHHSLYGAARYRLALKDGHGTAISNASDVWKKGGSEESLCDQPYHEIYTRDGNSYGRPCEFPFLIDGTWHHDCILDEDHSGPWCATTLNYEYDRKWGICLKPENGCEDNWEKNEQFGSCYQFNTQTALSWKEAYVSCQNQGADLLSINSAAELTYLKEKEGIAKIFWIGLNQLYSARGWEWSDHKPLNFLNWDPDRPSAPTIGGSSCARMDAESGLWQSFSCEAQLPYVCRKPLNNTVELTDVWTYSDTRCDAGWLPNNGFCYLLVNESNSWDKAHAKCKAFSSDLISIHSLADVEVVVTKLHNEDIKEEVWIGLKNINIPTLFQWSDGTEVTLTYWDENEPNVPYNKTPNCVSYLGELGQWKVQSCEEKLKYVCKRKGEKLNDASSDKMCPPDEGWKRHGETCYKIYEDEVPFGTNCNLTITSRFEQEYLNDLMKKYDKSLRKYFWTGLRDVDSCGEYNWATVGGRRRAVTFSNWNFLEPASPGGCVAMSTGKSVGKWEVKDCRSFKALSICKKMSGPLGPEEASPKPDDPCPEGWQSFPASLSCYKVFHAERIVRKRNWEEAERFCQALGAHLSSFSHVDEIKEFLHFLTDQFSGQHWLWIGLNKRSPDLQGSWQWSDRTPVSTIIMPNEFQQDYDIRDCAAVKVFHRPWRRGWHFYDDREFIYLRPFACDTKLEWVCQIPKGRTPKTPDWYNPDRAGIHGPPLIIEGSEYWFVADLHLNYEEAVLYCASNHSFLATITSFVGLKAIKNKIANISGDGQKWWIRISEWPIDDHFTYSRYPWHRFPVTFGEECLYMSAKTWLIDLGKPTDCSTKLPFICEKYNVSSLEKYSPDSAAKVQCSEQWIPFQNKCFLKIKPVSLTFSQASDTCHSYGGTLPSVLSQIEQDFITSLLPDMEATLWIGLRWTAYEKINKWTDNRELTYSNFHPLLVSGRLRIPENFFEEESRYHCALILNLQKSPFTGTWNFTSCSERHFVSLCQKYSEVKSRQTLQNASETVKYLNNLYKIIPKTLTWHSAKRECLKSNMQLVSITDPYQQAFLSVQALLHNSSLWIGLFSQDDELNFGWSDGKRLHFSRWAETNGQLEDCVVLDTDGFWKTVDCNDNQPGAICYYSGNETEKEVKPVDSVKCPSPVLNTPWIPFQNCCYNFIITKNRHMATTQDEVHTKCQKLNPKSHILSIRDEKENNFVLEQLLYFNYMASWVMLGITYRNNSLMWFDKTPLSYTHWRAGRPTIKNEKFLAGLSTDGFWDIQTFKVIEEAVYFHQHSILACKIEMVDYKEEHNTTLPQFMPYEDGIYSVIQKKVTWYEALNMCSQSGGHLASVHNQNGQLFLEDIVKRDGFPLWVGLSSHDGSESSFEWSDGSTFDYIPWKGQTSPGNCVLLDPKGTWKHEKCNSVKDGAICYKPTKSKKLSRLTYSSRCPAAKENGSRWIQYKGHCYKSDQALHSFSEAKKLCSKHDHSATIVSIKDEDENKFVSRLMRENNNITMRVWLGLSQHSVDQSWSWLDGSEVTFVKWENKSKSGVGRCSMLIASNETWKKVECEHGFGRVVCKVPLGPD
- test: SPR (Biacore 2000), DEC-205 fusion protein amine-coupled to CM5 chip, antibody flowed, 1:1 Langmuir fit, mean of two series
// kon lookup, one value per entry
Please reply with the bare figure in M⁻¹ s⁻¹ and do not write the unit itself.

For the binder human anti-DEC-205 monoclonal antibody 5A8-1F1 (antibody, V domains shown) VH: QVQLVESGGGVVQPGRSLRLSCAASGFTFSTYGMHWVRQAPGKGLEWVAIIWYDGGNKYYADSVKGRFTISRDNSKNTLYLQMNSLRAEDTAVYYCARDFYWYFDLWGRGTLVTVSS VL: EIVLTQSPATLSLSPGERATLSCRASQSVSSYLAWYQQKPGQAPRLLIYDASNRATGIPARFSGSGSGTDFTLTISSLEPEDFAVYYCQQRRTFGQGTKVEIK , what kon is on record?
360000

Bench note: what kon did human anti-DEC-205 monoclonal antibody 3C7-3A3 (antibody, V domains shown) VH: QVQLVESGGGVVQPGRSLRLSCAASGFTFSSYNMHWVRQAPGKGLEWVAFIWYDGSNKYYGDSVKGRFTISRDNSKNTLYLQMNSLRAEDTAVYYCAREELGIGWYFDLWGRGTLVTVSS VL: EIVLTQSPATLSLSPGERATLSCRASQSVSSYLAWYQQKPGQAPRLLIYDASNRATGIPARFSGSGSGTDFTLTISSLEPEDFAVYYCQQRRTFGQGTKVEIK show?
170000

Could you tell me which kon is on file for human anti-DEC-205 monoclonal antibody 3D6-2F4 (antibody, V domains shown, also called mAb #5) VH: QVQLVESGGGVVQPGRSLRLSCAASGFIFSIYGMHWVRQAPGKGLEWVAVIWYDGSNKYYADSVKGRFTISRDNSKNTLYLQMNSLRAEDTAVYYCARAPHFDYWGQGTLVTVSS VL: DIQMTQSPSSLSASVGDRVTITCRASQGISSWLAWYQQKPEKAPKSLIYAASSLQSGVPSRFSGSGSGTDFTLTISSLQPEDFATYYCQQYNSYPYTFGQGTKLEIK ?
1.8e+06

Fill blank: measured kon of the binder human anti-DEC-205 monoclonal antibody 3G9-2D2 (antibody, V domains shown) VH: QVQLVESGGGVVQPGRSLRLSCAASGFTFSNYGMYWVRQAPGKGLEWVAVIWYDGSNKYYADSVKGRFTISRDNSKNTLYLQMNSLRAEDTAVYYCARDLWGWYFDYWGQGTLVTVSS VL: EIVLTQSPATLSLSPGERATLSCRASQSVSSYLAWYQQKPGQAPRLLIYDASNRATGIPARFSGSGSGTDFTLTISSLEPEDFAVYYCQQRRNWPLTFGGGTKVEIK is ____.
900000
